- Species on record: Rattus norvegicus
- procedure.summary: Drug level in rat brain
- Type: ADME, organism-based
- protocol.conditions: in vivo
recorded.metric: Drug uptake (ng/g)

(a) CCc1ccc(-c2ccc(C(=O)N(C)[C@H]3CCN(C(=O)N4CC[C@@H](NC5CCOCC5)C4)C3)s2)cc1
(b) CCc1ccc(-c2ccc(C(=O)N(C)[C@H]3CCN(C(=O)N4CC[C@@H](N5CCCCC5)C4)C3)cc2)cc1
Problem: Just tell me: smaller Drug uptake value, a or b ? Write down the label attached to your selection.
Solution: a
(a: 17.3 ng/g, b: 38.3 ng/g)

(P) CCc1ccc(-c2ccc(C(=O)N(C)[C@H]3CCN(C(=O)N4CC[C@@H](N(C)C5CCOCC5)C4)C3)s2)cc1
(Q) CCc1ccc(-c2ccc(C(=O)N(C)[C@H]3CCN(C(=O)N4CC[C@@H](NC5CCOCC5)C4)C3)cc2)cc1
Problem: Lowest Drug uptake? choose P or Q Answer by stating the label of the chosen item.
Solution: Q
(Q: 5.1 ng/g, P: 21.8 ng/g)

###

- Species: Rattus norvegicus
- procedure.summary: Drug level in rat plasma
- Assay type: ADME, organism-based
- protocol.conditions: in vivo
recorded.metric: Drug uptake (ng/g)

{"query.smiles": "CCc1ccc(-c2ccc(C(=O)N(C)[C@H]3CCN(C(=O)N4CC[C@@H](N5CCCCC5)C4)C3)cc2)cc1", "unit.text": "ng/g", "Drug uptake": 6.2}

(I) CCc1ccc(-c2ccc(C(=O)N(C)[C@H]3CCN(C(=O)N4CC[C@@H](N(C)C5CCOCC5)C4)C3)s2)cc1
(II) CCc1ccc(-c2ccc(C(=O)N(C)[C@H]3CCN(C(=O)N4CC[C@@H](NC5CCOCC5)C4)C3)s2)cc1
(III) CCc1ccc(-c2ccc(C(=O)N(C)[C@H]3CCN(C(=O)N4CC[C@@H](NC5CCOCC5)C4)C3)cc2)cc1
Problem: Provide the items ranked by increasing Drug uptake. I would appreciate it if you listed the labels in the requested order.
Solution: I, III, II
(I: 6.7 ng/g, III: 14.5 ng/g, II: 30.5 ng/g)

###

- procedure.summary: Ratio of drug level in rat brain against plasma
- Type: ADME, organism-based
- protocol.conditions: brain and plasma, read-out: BPR
recorded.metric: Kp

{"query.smiles": "CCc1ccc(-c2ccc(C(=O)N(C)[C@H]3CCN(C(=O)N4CC[C@@H](NC5CCOCC5)C4)C3)cc2)cc1", "measured.value": 0.4}
{"query.smiles": "CCc1ccc(-c2ccc(C(=O)N(C)[C@H]3CCN(C(=O)N4CC[C@@H](NC5CCOCC5)C4)C3)s2)cc1", "measured.value": 0.6}

(a) CCc1ccc(-c2ccc(C(=O)N(C)[C@H]3CCN(C(=O)N4CC[C@@H](N5CCCCC5)C4)C3)cc2)cc1
(b) CCc1ccc(-c2ccc(C(=O)N(C)[C@H]3CCN(C(=O)N4CC[C@@H](N(C)C5CCOCC5)C4)C3)s2)cc1
Problem: Smaller Kp value, a vs b ? Returns: label corresponding to the selected item.
Solution: b
